Below, each entry is listed with its recorded IC50.
- system: PD-1/PD-L1 (Homo sapiens)
- Construct: Recombinant human PD-L1 protein (19-238) with a His-tag at the C-terminus; purchased AcroBiosystems PD1-H5229 (PD-L1); PD1-H5257 (PD-1)
- method.summary: PD-1/PD-L1 Homogeneous Time-Resolved Fluorescence (HTRF) binding assay
- settings: recombinant human PD-L1 (19-238)-His 10 nM, human PD-1 (25-167)-Fc 3 nM, 25° C., PBS pH 7.4

Cc1c(-c2ccccc2)cccc1N1CCC2(CCCC(=O)N2)CC1 [Example 30] :: 100 to 1000 nM
Cc1c(/C=C/c2ccc(CN3CCCC[C@@H]3C(=O)O)cn2)cccc1-c1ccccc1 [Example 8] :: 10 to 100 nM
CCN(C)CC(=O)N1Cc2nc(-c3cccc(-c4cccc(N5CCC6NCCC6C5)c4C)c3C)sc2C1 (stereo not shown) [Example 37] :: 100 to 1000 nM
Cc1c(-c2ccccc2)cccc1N1CCC(CN)CC1 [Example 27] :: 100 to 1000 nM
Cc1c(-c2nc3c(s2)CN(C(=O)CN(C)C)C3)cccc1-c1cccc(-c2nc3c(s2)CN(C(=O)CN2CC[C@@H](O)C2)C3)c1C [Example 35] :: ≤ 10 nM

Determine reported IC50 for CCN(C)CC(=O)N1Cc2nc(-c3cccc(-c4cccc(N5CCn6cncc6C5)c4C)c3C)sc2C1 [Example 38] ; test system: PD-1/PD-L1 (Homo sapiens).
10 to 100 nM

Determine reported IC50 for Cc1c(C2=CCC(N3CCCC3)CC2)cccc1-c1ccccc1 (stereo not shown) [Example 32] ; test system: PD-1/PD-L1 (Homo sapiens).
100 to 1000 nM

Determine reported IC50 for CCN(C)CC(=O)N1Cc2nc(-c3cccc(-c4cccc(C#CC5CCNCC5)c4C)c3C)sc2C1 [Example 36] ; test system: PD-1/PD-L1 (Homo sapiens).
≤ 10 nM

---

- system: PD-1/PD-L1 (Homo sapiens, UniProt Q9NZQ7)
- Construct: Recombinant human PD-L1 protein (19-238) with a His-tag at the C-terminus; PD1-H5257 (PD-1)
- Sequence (Q9NZQ7 19-238): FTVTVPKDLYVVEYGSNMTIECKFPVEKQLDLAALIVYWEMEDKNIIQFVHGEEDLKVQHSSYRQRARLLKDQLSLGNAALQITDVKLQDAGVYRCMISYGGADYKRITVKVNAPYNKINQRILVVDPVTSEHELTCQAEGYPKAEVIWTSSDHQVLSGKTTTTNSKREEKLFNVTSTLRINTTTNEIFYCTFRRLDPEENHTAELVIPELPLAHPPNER
- method.summary: PD-1/PD-L1 Homogeneous Time-Resolved Fluorescence (HTRF) binding assay
- settings: recombinant human PD-L1 (19-238)-His 10 nM, human PD-1 (25-167)-Fc 3 nM, 25° C., PBS pH 7.4
readout.label: IC50

Consider the worked cases shown below.
Cc1c(NC(=O)N2CCCC(N)C2)cccc1-c1ccccc1 (centres unmarked) :: 1000 to 2000 nM
O=C(Nc1ccc2cnc(-c3ccccc3)cc2c1Cl)c1ccc(CNCCO)cn1 :: 100 to 1000 nM

Check the records and state IC50 for Cc1c(-c2ccccc2)ccnc1-c1ccc(CN)cc1
100 to 1000 nM

Check the records and state IC50 for Cc1c(Nc2ccc3c(c2)CCNC3)cccc1-c1ccccc1
100 to 1000 nM

Check the records and state IC50 for Cc1c(-c2ccccc2)cccc1-c1ccc(CNCCO)cc1
10 to 100 nM

---

- system: PD-1/PD-L1 (Homo sapiens)
- Construct: Recombinant human PD-L1 protein (19-238) with a His-tag at the C-terminus; PD1-H5257 (PD-1)
- method.summary: PD-1/PD-L1 Homogeneous Time-Resolved Fluorescence (HTRF) binding assay
- settings: recombinant human PD-L1 (19-238)-His 10 nM, human PD-1 (25-167)-Fc 3 nM, 25° C., PBS pH 7.4
readout.label: IC50

Consider the worked cases shown below.
Cc1c(NCC2CCCNC2)cccc1-c1ccccc1 (stereo not drawn) :: 1000 to 2000 nM
Cc1c(-c2ccccc2)cccc1-c1cnn(C[C@@H]2CCCN2)c1 :: 10 to 100 nM
Cc1c(-c2ccccc2)cccc1N1CCc2cc(CNCCO)ccc2C1 :: 100 to 1000 nM

Check the records and state IC50 for COc1cccc(-c2cccc(Nc3nccc(CNCCO)c3F)c2Cl)c1F
≤ 10 nM

Check the records and state IC50 for Cc1c(-c2ccccc2)cccc1N1CC[C@H](CN)C1
1000 to 2000 nM

Check the records and state IC50 for Cc1c(-c2ccccc2)cccc1-c1ccc2nc(CN3CCCC[C@H]3C(=O)O)cc(C)c2c1
10 to 100 nM

Check the records and state IC50 for Cc1c(-c2ccccc2)cccc1-c1ccc2c(c1)CCNC2
10 to 100 nM

Check the records and state IC50 for COc1cccc(-c2cccc(Nc3nccn4c(CNCCO)cnc34)c2C)c1F
10 to 100 nM

Check the records and state IC50 for Cc1c(-c2ccccc2)cccc1N1Cc2ccc(CNCCO)cc2C1
100 to 1000 nM

Check the records and state IC50 for OCC1(CNC2CCN(c3cccc(NCc4ccccc4)c3Cl)CC2)CCC1
100 to 1000 nM

Check the records and state IC50 for Cc1c(-c2ccccc2)cccc1-c1ccc2c(c1)CCC(CN(C)C)O2 (stereo not drawn)
100 to 1000 nM

Check the records and state IC50 for COc1cccc(-c2cccc(Nc3ncccc3C(=O)NCCNCCO)c2C)c1F
100 to 1000 nM

Check the records and state IC50 for Cc1c(-c2ccccc2)cccc1N1CCC[C@@H](N)C1
100 to 1000 nM

Check the records and state IC50 for Cc1c(-c2ccccc2)cccc1-c1ccc2c(c1)CNC2
10 to 100 nM

Check the records and state IC50 for Cc1c(-c2ccccc2)cccc1-c1cnc2c(c1)CNC2
100 to 1000 nM

Check the records and state IC50 for Cc1c(Nc2ccc3c(c2)CCN(C(CO)CO)C3)cccc1-c1ccccc1
100 to 1000 nM

Check the records and state IC50 for Cc1c(Oc2ncnc3c(CNCCO)csc23)cccc1-c1ccccc1
10 to 100 nM

Check the records and state IC50 for Cc1c(Nc2nsc3nccnc23)cccc1-c1ccccc1
100 to 1000 nM
